target: T1, BTN3A3-Fc (recombinant human BTN3A3 Fc-chimera, HEK293-expressed, R&D Systems) (human, UniProt O00478 30-248); assay: binding affinity, method not stated (Octet named in text)
T1 construct: Bought Fc-chimera; Biotinylated for the yeast display selections; not shown: Fc part of the bought Fc-chimera
T1 sequence (O00478 30-248, change not shown): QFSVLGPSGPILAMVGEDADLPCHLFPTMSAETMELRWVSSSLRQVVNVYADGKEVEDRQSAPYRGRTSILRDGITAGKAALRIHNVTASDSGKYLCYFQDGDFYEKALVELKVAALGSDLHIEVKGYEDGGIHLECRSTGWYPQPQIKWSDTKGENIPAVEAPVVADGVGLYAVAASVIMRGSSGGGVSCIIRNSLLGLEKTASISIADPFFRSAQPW
MEASUREMENT_LABEL: Kd (nM)
The response must be a number in nM with no trailing unit.

*Q* Could you please provide reported Kd for Antibody 3A (antibody, IgG1, V domains shown, isotype hIgG1-297A (IgG1 N297A); kappa germline VK1-05.6) VH: QVQLVQSGAEVKKPGASVKVSCKASGYTFTSYYMHWVRQAPGQGLEWMGIINPGGGSTSYAQKFQGRVTMTRDTSTSTVYMELSSLRSEDTAVYYCARDAGHDYGDMAYWGQGTLVTVSS VL: DIQMTQSPSTLSASVGDRVTITCRASQSISSWLAWYQQKPGKAPKLLIYKASSLESGVPSRFSGSGSGTEFTLTISSLQPDDFATYYCQQYRSFPTFGGGTKVEIK ? Thanks!
*A* 1.4

// provenance: patent US20220064291A1
